Tested on: COLO 205 colon
Assay Method Text: NCI tumour cell line growth inhibition, 48 h; in the data active = GI50 below about 0.43 µM; inactive = the rest
Returns: one label drawn from 1 (active), 0 (inactive)

The examples below pair each entry with its known result.
Compound	Assayed System	Class
COc1cc(/C=C/C(=O)c2c(C)n([O-])c3cc(C)c(C)cc3[n+]2=O)cc(OC)c1OC	COLO 205 colon	0
O=C1OCC2=C1C(c1cccc(F)c1)c1cc3c(cc1N2CCO)OCCO3 (centres undefined)	COLO 205 colon	1
COC(=O)Nc1nc2c(OC)c(OC)c(OC)cc2[nH]1	COLO 205 colon	0

Next, consider the following compound.
Prompt: Which result was noted for this compound in the test: CCC[CH2][Sn]1([CH2]CCC)[O]C(=O)C[S]1
Completion: 0

---

System: SK-MEL-5 melanoma
Assay Method Text: NCI tumour cell line growth inhibition, 48 h
Observation Type: GI50

Smiles Structure	GI50
CC(=O)OCCC/C(=C\c1ccc2ccccc2c1)[N+](=O)[O-]	1720 nM
NC1=CC(=O)C(=O)c2cccnc21	1510 nM

Let us examine a further case.
Prompt: I'd like to know its GI50. The compound in question is Clc1ccccc1-c1nc2ccccc2[nH]1
Completion: > 100000 nM

---

Test system: SW-620 colon
Assay Method Text: NCI tumour cell line growth inhibition, 48 h
Observation Type: TGI

Compound	Experimental Result
O=C(Cc1ccccc1)Nc1nnc(CCSCCc2nnc(NC(=O)Cc3ccccc3)s2)s1	> 100 µM
Cc1cc(-c2ccccc2)c(C)n1Cc1ccc(Cl)cc1	> 100 µM
CC(=O)OC1CCC2(C)C(CCC3C2CCC2(C)C(C4=CC(=O)OC4)CCC32)C1 (centres undefined)	> 100 µM
COC(=O)C1CC2(c3ccc(C)cc3)C(c3ccc(C)cc3)=C(c3ccc(C)cc3)C1(c1ccc(C)cc1)S2=O (centres undefined)	> 100 µM
NCCCCNCCCN	> 100 µM
O=c1c2c([nH]c3cc4c(cc13)OCO4)-c1ccccc1CCC2	> 50 µM

Prompt: Look at this compound and give its reported TGI. O=C([C@H](O)[C@@H](O)c1ccc(Br)cc1)C12CC3CC(CC(C3)C1)C2
Completion: > 38.4 µM

Prompt: Which TGI is listed for CCN(CC)C(=O)c1c(N2CCOCC2)cc(N(CC)CC)oc1=O ?
Completion: > 100 µM

Prompt: Report TGI for C=C1c2nc3ccccc3n2C=C(c2ccc(Cl)cc2)N1c1ccccc1 please.
Completion: > 100 µM

---

We begin with a simple list: items and their reported TGI.
Test system: MOLT-4 leukemia
Assay Method Text: NCI tumour cell line growth inhibition, 48 h

Prompt: Looking for the measured TGI of Cn1c2ccccc2c2cc(-c3ccccc3)c3c(c21)C(=O)C=CC3=O , can you help?
Completion: 21.8 µM

Prompt: Requested read-out: TGI. Entry: Cn1cc2ccccc2c1-c1nc(F)nc(Oc2ccc3c(c2)CC[C@@H]2C3CC[C@]3(C)C(O)CCC23)n1 (some centres undefined)
Completion: 65.7 µM

Prompt: Find the recorded TGI belonging to CCCCNC(=S)/N=C/c1c(O)c2ccccc2oc1=O and report it.
Completion: > 100 µM

Prompt: Reported TGI, compound Clc1ccc(OCC2NC3C=CC32)cn1 (centres undefined) : ____
Completion: > 100 µM

Prompt: Bench note: what TGI did COc1cc(C(=O)/C=C/c2c(-c3ccc(F)cc3)nc3sccn23)cc(OC)c1OC show?
Completion: 6.35 µM

Prompt: What value of TGI has been recorded for this entry: CNC1=C(C)C(=O)C(C)=C(C(C)(C)CC(=O)n2cc(F)c(=O)[nH]c2=O)C1=O
Completion: > 100 µM

Prompt: Name the reported TGI value associated with the compound Cn1c(=O)c(C(c2ccccc2)c2c(O)c3ccccc3n(C)c2=O)c(O)c2ccccc21
Completion: > 100 µM

Prompt: # get_value(readout='TGI', item= O=C1c2cnccc2Cc2cccc3c2N1c1ccccc1S3 )
Completion: > 100 µM

Prompt: Would you mind telling me what TGI value was observed for CN(C)CCCNC(=O)c1cc(NC(=O)c2cc(NC(=O)c3cc(NC(=O)CCCn4ccc(CO)c4CO)cn3C)cn2C)cn1C ?
Completion: > 100 µM

Prompt: If you can, please state the reported TGI value of COc1ccc(-c2cc(-c3ccccc3)c(C#N)c(=O)[nH]2)cc1 .
Completion: > 100 µM

Prompt: What does the data say about its TGI? Entry: OC(COc1ccc(Cl)cc1Cl)CN1CCCC1 (centres undefined)
Completion: > 100 µM

---

System: MOLT-4 leukemia
Assay Method Text: NCI tumour cell line growth inhibition, 48 h
Measured TGI, listed per entry for reference.

See these solved cases before continuing.
Molecule	Experimental Result
Cc1sc2nc(-c3ccccn3)c(/C=N/N=C(N)N)n2c1C	> 27.5 µM
CCOC(=O)/C=C(/C(=O)OCC)n1c(=O)c(C)cn(C2CC(N=[N+]=[N-])C(CO)O2)c1=O (stereo not drawn)	25.6 µM
[N-]=[N+]=C1CNC(=O)NC1=O	> 100 µM
O=C1Nc2ccccc2C12CC(c1ccccc1)=NN2 (stereo not drawn)	> 100 µM
Cc1cc[c-]cc1.Fc1c[c-]c(-c2ccccn2)c(F)c1.N#CCC[PH+](CCC#N)c1ccccc1.[Pt+2]	> 100 µM
O=c1[nH]c(=O)n(C2CC(O)C(CO)O2)cc1NN=NCc1ccccc1 (stereo not drawn)	> 100 µM

Prompt: Give its TGI value. Item: FC1CCN(C2(c3cccs3)CCCCC2)CC1
Completion: > 100 µM

Prompt: Need TGI, item O=C1CC(c2ccccc2)Cc2nc3ccc(Cl)cc3cc21 (stereo not drawn)
Completion: > 100 µM

---

Tested on: MOLT-4 leukemia
Assay Method Text: NCI tumour cell line growth inhibition, 48 h
Observation Type: TGI (µM)
Use µM as the unit, but write only the number.

Prompt: Endpoint output: TGI of CCCCCCC(CCl)c1sc(-c2csc(CCNC(=O)OC(C)(C)C)n2)nc1C(=O)OC (stereo not given) . Value?
Completion: 24.2

Prompt: For COc1ccc(OC)c(CNc2ccc(O)c(C(=O)NCCc3ccc(F)cc3)c2)c1 , what is its reported TGI?
Completion: 21.5

Prompt: Which TGI value is on record for Cc1ccc(S(=O)(=O)n2cc(-c3cnc(N)c(Br)n3)c3ccccc32)cc1 ?
Completion: 10.7
